molecular target: SUV39H2 (Homo sapiens (Human), UniProt Q9H5I1); experiment: biochemical; type: biochemical; conditions: 3H-SAM 100 nM, H3 Histone Peptide 350 nM, room temperature 3 hours
Sequence (Q9H5I1 whole entry): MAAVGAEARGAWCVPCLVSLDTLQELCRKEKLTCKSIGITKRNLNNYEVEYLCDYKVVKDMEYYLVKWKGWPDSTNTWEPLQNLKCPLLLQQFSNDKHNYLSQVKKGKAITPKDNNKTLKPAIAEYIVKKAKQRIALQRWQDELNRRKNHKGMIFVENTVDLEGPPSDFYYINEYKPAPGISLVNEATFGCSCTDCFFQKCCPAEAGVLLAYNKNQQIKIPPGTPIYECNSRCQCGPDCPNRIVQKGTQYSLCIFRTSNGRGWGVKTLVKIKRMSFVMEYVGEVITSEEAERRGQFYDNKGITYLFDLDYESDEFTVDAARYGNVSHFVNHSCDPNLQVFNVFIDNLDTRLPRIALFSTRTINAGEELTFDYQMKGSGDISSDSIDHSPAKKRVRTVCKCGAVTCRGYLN
Structures can show the parent of a compound that is named as a salt.
REPORTED_PROPERTY: IC50 (µM)
Please give a number only; it is taken to be in µM.

COc1cc(OC)c(-c2cn3ccc(N4CC[C@H](NCc5ccnc(Cl)c5)C4)cc3n2)cc1Cl [Example 413, dihydrochloride]	0.00635
COc1cc(OC)c(-c2cn3ccc(N4CCCN(C(C)=O)CC4)cc3n2)cc1Cl	0.0161
COc1cc(OC)c(-c2cn3ccc(N4CCN(C(=O)c5ccncc5)CC4)cc3n2)cc1Cl	0.0164
COc1cc(OC)c(-c2cn3ccc(N4CCN(c5ncc(N6CCOCC6)cn5)CC4)cc3n2)cc1Cl	0.0251
COc1cc(OC)c(-c2cn3ccc(N4CCN(c5ccc(N)nc5)CC4)cc3n2)cc1Cl	0.0304
COc1cc(OC)c(-c2cn3ccc(N4CCN(c5ccnc(N6CCNC(C)C6)n5)CC4)cc3n2)cc1Cl (stereo not shown)	0.0155

Fill in reported IC50 for this entry: "CNC1CCN(c2cnc(N3CCN(c4ccn5cc(-c6cc(Cl)c(OC)cc6OC)nc5c4)CC3)nc2)CC1"
0.0175

---

The following compounds are shown together with reported IC50 values.
biological target: SUV39H2 (Homo sapiens (Human), UniProt Q9H5I1); conditions: read-out: IC50 (μM) Suv 39H2 assay; enzyme assay
Respond numerically; units are µM and should not be typed.

// solved cases for IC50 follow
COc1cc(OC)c(-c2cn3ccc(C4=CCN(P(=O)(OC)OC)CC4)cc3n2)cc1Cl	0.0375
COc1cc(OCCCN(C)C)c(-c2cn3ccc(N4CCN(S(=O)(=O)N(C)C)CC4)cc3n2)cc1Cl	0.0147
COc1cc(C)c(Cl)cc1-c1cn2ccc(N3CCN(S(=O)(=O)C4CC4)CC3)cc2n1	0.0775
COc1cc(OC)c(-c2cn3ccc(N[C@H]4CC[C@H](NCc5ccccc5)CC4)cc3n2)cc1Cl	0.041
COc1cc(OC)c(-c2cn3ccc(C4=CCN(CCN5CCOCC5)CC4)cc3n2)cc1Cl	0.0191
COc1cc(OC)c(-c2cn3cc(CCCCN)c(N4CCOCC4)cc3n2)cc1Cl	0.0502

Identify measured IC50 associated with "COc1cc(OC)c(-c2cn3ccc(C4=CCOCC4)cc3n2)cc1Cl"
0.0661

Kindly indicate its recorded IC50. Item: "COc1cc(OC)c(-c2cn3ccc(N4CCN(C(=O)C5CC5)CC4)nc3n2)cc1Cl"
0.0154

---

tested on: HFL1; assay: Cell-based assay, anti-proliferative activity (Cell Counting Kit-8, 72 hours); conditions: Homo sapiens, HFL1, 72 h, read-out: IC50 (μM) HFL1
Where a name gives a salt, the structure may show the parent alone.
Measured log10 IC50 values are reported for all entries that follow.
Transform log10 | Measure IC50 | Unit µM

Take a look at these entries with their results.
COc1cc(OC)c(-c2cn3ccc(N[C@H]4CC[C@H](CN5CCN(Cc6ccccc6)CC5)CC4)cc3n2)cc1Cl [Example 278, 2,2,2-trifluoroacetate]	-0.14
COc1cc(OC)c(-c2cn3ccc(C4=CCN(P(=O)(OC)OC)CC4)cc3n2)cc1Cl [Example 195]	0.45

# return recorded log10 IC50 for entry COc1cc(OC)c(-c2cn3ccc(N(C)CCN)cc3n2)cc1Cl [Example 54]
0.40

State, in one line, measured log10 IC50 of COc1cc(OC)c(-c2cn3ccc(N4CCCC4)cc3n2)cc1C#N [Example 49]
-0.10

Please indicate log10 IC50 recorded for COc1cc(OC)c(-c2cn3ccc(N4CCN(CCN)CC4)cc3n2)cc1Cl [Example 29, trihydrochloride]
0.65

Give log10 IC50 for COc1cc(OC)c(-c2cn3ccc(NCCN(C)C)cc3n2)cc1Cl [Example 83]
0.34

Entry COc1cc(OC)c(-c2cn3ccc(NC(=O)[C@H](C(C)C)N(C)C)cc3n2)cc1Cl [Example 272] needs its log10 IC50 filled in; supply it.
-0.35

Note down log10 IC50 recorded for COc1cc(OC)c(-c2cn3ccc(N4CCC(N)C4)nc3n2)cc1Cl (stereo not drawn) [Example 34, hydrochloride]
0.64

---

biological target: SUV39H2 (Homo sapiens (Human), UniProt Q9H5I1); conditions: read-out: IC50 (μM) Suv 39H2 assay; enzyme assay
Counter-ions that a name gives are not always drawn.
Classify: True when IC50 is strictly less than 0.02 µM; False when IC50 is not.

These recorded examples may help you get a feel for the data.
COc1cc(OC)c(-c2cn3ccc(NC(=O)[C@@H](N)Cc4c[nH]c5ccccc45)cc3n2)cc1Cl [Example 250]	False
COC(=O)NC1CCN(c2ccn3cc(-c4cc(Cl)c(OC)cc4OC)nc3c2)CC1 [Example 122]	True
COc1cc(OC)c(-c2cn3ccc(NC(=O)CNC(=O)OC(C)(C)C)cc3n2)cc1Cl [Example 161]	False
CCS(=O)(=O)N1CCN(c2ccn3cc(-c4cc(Cl)c(OC)cc4OCCCN(C)C)nc3c2)CC1 [Example 199]	True
CCS(=O)(=O)N1CCN(c2ccn3cc(-c4cc(Cl)c(OC)cc4OC)nc3c2)CC1 [Example 172]	True
COc1cc(OC)c(-c2cn3ccc(N4CCOCC4)cc3n2)cc1F [Example 87, hydrobromide]	False

A record lists COc1cc(OC)c(-c2cn3ccc(-c4ccc(C(=O)NCC5CCCNC5)cc4)cc3n2)cc1Cl (centres unmarked) [Example 251] . Is its IC50 below 0.02 µM?
False

In the record for COc1cc(OC)c(-c2cn3cc(N4CCC(N)CC4)ccc3n2)cc1Cl [Example 121] , is IC50 less than 0.02 µM?
False

---

system: CCD-18Co; test: Cell-based assay, anti-proliferative activity (Cell Counting Kit-8, 72 hours); conditions: Homo sapiens; CCD-18Co cells, Cell Counting Kit-8, 72 hours; read-out: IC50 (μM) CCD-18Co
Lab note: class by IC50, see low value = under 4 µM, medium value = from 4 µM up to 7 µM, high value = 7 µM and over

Example entries and their recorded answers appear below.
COc1cc(OC)c(-c2cn3ccc(N4CCN(S(=O)(=O)N(C)C)CC4)nc3n2)cc1Cl	low value
CCS(=O)(=O)N1CCN(c2ccn3cc(-c4cc(Cl)c(OC)cc4OC)nc3n2)CC1	medium value
COc1cc(OC)c(-c2cn3ccc(N4CCC(CN(C)C)CC4)cc3n2)cc1Cl	medium value
COc1cc(OC)c(-c2cn3ccc(NCCCN)cc3n2)cc1Cl	high value
COc1cc(OCCN(C)C)c(-c2cn3ccc(N4CCOCC4)cc3n2)cc1Cl	high value

Tag the class for "COc1cc(OC)c(-c2cn3ccc(N4CCC(CCN(C)C)CC4)cc3n2)cc1Cl"
low value

Which category fits this record: "COc1cc(OC)c(-c2cn3ccc(N4CCN(S(=O)(=O)C(C)C)CC4)nc3n2)cc1Cl"
low value

Input COc1cc(OC)c(-c2cn3ccc(N4CCC(NC(C)=O)C4)cc3n2)cc1Cl (centres unmarked) ; output its category
high value

Consider "COc1cc(OC)c(-c2cn3ccc(N)nc3n2)cc1Cl" . To which IC50 class does it belong?
high value

Using the reported IC50, which band applies to "COc1cc(OC)c(-c2cn3ccc(N4CCC(NS(=O)(=O)N(C)C)CC4)cc3n2)cc1Cl" ?
low value

For the record "COc1cc(OC)c(-c2cn3ccc(N4CCN(CCN5CCNCC5)CC4)cc3n2)cc1Cl" , report the class its IC50 corresponds to.
high value

Which category does the recorded IC50 put "COc1cc(OCCCN(C)C)c(-c2cn3ccc(N4CCC(NC(=O)C(C)(C)C)CC4)cc3n2)cc1Cl" in?
medium value

// bin(item) where item = "COc1cc(OC)c(-c2cn3ccc(-c4cncc(N)c4)cc3n2)cc1Cl"
low value

---

Recorded IC50 by entry
system: CCD-18Co; assay: Cell-based assay, anti-proliferative activity (Cell Counting Kit-8, 72 hours); details: Homo sapiens; CCD-18Co cells, 72 hours, Cell Counting Kit-8; read-out: IC50 (μM) CCD-18Co
Where a name gives a salt, the structure may show the parent alone.
The figure you give is taken to be in µM; do not add the unit.

// solved cases for IC50 follow
COc1cc(OC)c(-c2cn3ccc(-c4ccc(C(=O)NCC(O)CN)cc4)cc3n2)cc1Cl (centres unmarked) [Example 256]	10
COc1cc(OC)c(-c2cn3ccc(-c4ccc(C(=O)N5CCNCC5)cc4)cc3n2)cc1Cl [Example 254]	3.1
COc1cc(OC)c(-c2cn3ccc(N4CCN(C(=O)OC(C)(C)C)CC4)cc3n2)cc1Cl [Example 232]	1.5
COc1cc(OC)c(-c2cn3ccc(N4CC[C@H](NCc5ccncc5)C4)cc3n2)cc1Cl [Example 298, trihydrochloride]	1.4
COc1cc(OC)c(-c2cn3ccc(N4CCN(c5cnccn5)CC4)cc3n2)cc1Cl [Example 285]	0.7
COc1cc(OC)c(-c2cn3ccc(N4CCN(S(=O)(=O)C5CC5)C(COCCN(C)C)C4)cc3n2)cc1Cl (centres unmarked) [Example 245]	5
COc1cc(OC)c(-c2cn3cc(NCCN)c(N4CCNCC4)nc3n2)cc1Cl [Example 223]	10

Alright, here's another compound for you.
Look up and report measured IC50 for this entry: COc1cc(OC)c(-c2cn3ccc(N4CCN(c5ccccn5)CC4)cc3n2)cc1Cl [Example 276]
1.1

Ref: patent US10508109B2
